Assay: Half life in rat plasma at 2 uM up to 4 hrs by LC/MS/MS analysis
Type: ADME, cell-free
Test Readout: log10(half-life at 2 µM) (log10 of the value in min)
Log10 applied to half-life at 2 µM; unit prior to transform: min.

Smi: CC(C)[C@@H]1NC(=O)C/C=C/c2cc3cc(ccc3cn2)[C@@H](C)OC(=O)[C@@H]2CCCN(N2)C(=O)[C@H](C)NC1=O
log10(half-life at 2 µM): 0.90
--
Smi: CC(C)[C@@H]1NC(=O)CC/C=C/c2cc3cc(ccc3cn2)[C@@H](C)OC(=O)[C@@H]2CCCN(N2)C(=O)[C@H](C)NC1=O
log10(half-life at 2 µM): 0.90
--
Smi: CO[C@@H]1/C=C/c2cc3cc(ccc3cn2)[C@@H](C)OC(=O)[C@@H]2CCCN(N2)C(=O)[C@H](C)NC(=O)[C@H](C(C)C)NC(=O)[C@@H]1C
log10(half-life at 2 µM): 0.70

# ---- query compound ----
For this compound ( `CC(C)[C@@H]1OC(=O)C(C)(C)/C=C/c2ccc3ccc(nc3c2)[C@@H](C)NC(=O)[C@@H]2CCCN(N2)C(=O)[C@H](C)NC1=O` ), measured log10(half-life at 2 µM) is 2.61

* * *

Assay: Half life in rat plasma at 2 uM up to 4 hrs by LC/MS/MS analysis
Format: ADME, cell-free
Test Readout: half-life at 2 µM (min)
Could you give me the number in min? Just the number is fine.

// solved cases for half-life at 2 µM follow
Smi: CC(C)[C@@H]1NC(=O)C(C)(C)/C=C/c2ccc3ccc(nc3c2)[C@@H](C)OC(=O)[C@@H]2CCCN(N2)C(=O)[C@H](C)NC1=O
half-life at 2 µM, min: 15
//
Smi: CC(C)[C@@H]1OC(=O)C(C)(C)/C=C/c2cc3cc(ccc3cn2)[C@@H](C)NC(=O)[C@@H]2CCCN(N2)C(=O)[C@H](C)NC1=O
half-life at 2 µM, min: 564

For this molecule ( `CO[C@H]1C(=O)N[C@@H](C(C)C)C(=O)N[C@@H](C)C(=O)N2CCC[C@H](N2)C(=O)O[C@H](C)c2cccc(c2)/C=C/CC[C@H]1C` ), measured half-life at 2 µM is 5
